Data credit: patent US11660265B2

Give AUC(0-t) for every item shown.
Assay: clinical
Settings: both, human, in vivo, AUC0-last (SD)
Experimental: The final treatment administered was 3.8 mg on a 10 cm^2 patch using an applicator with 0.52 Joule of application energy in the intracutaneous microneedle system described herein. The products tested were: This was a single-center, open-label, randomized five-way crossover study (Part 1) followed by a sequential study of two additional treatments (Parts 2 and 3). […] After completion of the seven dosing days, subjects were assessed one final time and dismissed from the study. […]
Value expressed in ng·h/mL; do not type the unit.

// AUC(0-t) lookup, compound = CN(C)CCc1c[nH]c2ccc(C[C@H]3COC(=O)N3)cc12 [Zolmitriptan 2.5 mg Oral Tablet, zolmitriptan] , result: 22.2

The recorded AUC(0-t) for CNS(=O)(=O)Cc1ccc2[nH]cc(CCN(C)C)c2c1 [Sumatriptan, sumatriptan] is 101

###

test: Solubility of zolmitriptan in various acids; assay type: physicochemical; settings: 5 °C, aqueous buffer, thermodynamic from solid; 0.1 M tartaric acid, 2-8° C.
reportedMetric: solubility (mg/mL)
Reply numerically in mg/mL, unit not repeated.

CN(C)CCc1c[nH]c2ccc(C[C@H]3COC(=O)N3)cc12 [Zolmitriptan, zolmitriptan] yielded solubility of 63.3
